For each record, write down the corresponding activity.
Molecular target: Tumor necrosis factor receptor superfamily member 10B (Homo sapiens) (UniProt O14763)
Sequence (O14763 whole entry, looked up): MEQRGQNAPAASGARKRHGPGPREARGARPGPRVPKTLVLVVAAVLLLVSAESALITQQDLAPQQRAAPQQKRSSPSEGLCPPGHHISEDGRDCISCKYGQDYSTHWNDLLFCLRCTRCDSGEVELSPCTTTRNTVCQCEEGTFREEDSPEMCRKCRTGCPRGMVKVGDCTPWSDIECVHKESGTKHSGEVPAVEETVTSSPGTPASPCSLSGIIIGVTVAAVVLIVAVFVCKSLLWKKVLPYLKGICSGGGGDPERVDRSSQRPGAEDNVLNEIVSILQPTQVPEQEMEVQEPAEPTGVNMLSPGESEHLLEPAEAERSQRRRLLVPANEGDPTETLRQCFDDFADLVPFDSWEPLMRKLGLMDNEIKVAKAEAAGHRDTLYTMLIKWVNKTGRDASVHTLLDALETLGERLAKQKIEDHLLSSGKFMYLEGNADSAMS
Experiment: caspase-8 TRAIL sensitization, hit retest, confirmation, cell-based, NB7+caspase-8, with/without TRAIL, luminescence panel (AID 651596)
Conditions: NB7 neuroblastoma + caspase-8, TRAIL sensitization, luminescence viability, with TRAIL, mean of runs, at 10 µM, stronger effect = higher value
Please format your answer as a value with the unit trailing.

These recorded examples may help you get a feel for the data.
COc1ccc(C(=O)O/N=C(\N)c2ccccn2)c(OC)c1 ... 75.5%
Cc1cc(N/N=C/c2ccccc2Cl)nc(NCc2ccccc2)n1 ... 37.5%
CC(C)(CNC(=O)c1ccc([N+](=O)[O-])c(Cl)c1)CNC(=O)c1ccc([N+](=O)[O-])c(Cl)c1 ... 54.5%

Give activity for all molecules that follow.
1. C=C(C)c1nc(Oc2ccccc2)nc(Oc2ccccc2)n1
2. COc1ccc2nc(Nc3nc(-c4cc5ccccc5oc4=O)cs3)sc2c1
3. S=c1nc[nH]c2c1ncn2C1CCCO1 (stereo not drawn)
4. CCc1cc2c(COC(=O)c3cc(S(=O)(=O)N4CCOCC4)ccc3F)cc(=O)oc2cc1O
5. COc1ccc2cc(-c3ccccc3)ncc2c1
6. O=C(/C=C/C(Cl)(Cl)Cl)Nc1ccc(Cl)cc1
7. COc1ccc2nc(NN=C(C)c3ccccn3)cc(C)c2c1

# output
1. 77%
2. 50.4%
3. 17.8%
4. 77.3%
5. 63.8%
6. 98.8%
7. 74%

---

For each record, write down the corresponding activity.
Target: Tumor necrosis factor receptor superfamily member 10B (Homo sapiens)
Assay: caspase-8 TRAIL sensitization, hit retest, confirmation, cell-based, NB7+caspase-8, with/without TRAIL, luminescence panel (AID 651596)
Details: NB7 neuroblastoma + caspase-8, TRAIL sensitization, luminescence viability, with TRAIL, mean of runs, at 10 µM, stronger effect = higher value
Numbers only, in %.

These recorded examples may help you get a feel for the data.
NC1=NC[C@H](CC2CCCCC2)N1CCc1cc(C(F)(F)F)cc(C(F)(F)F)c1 ... 40.9
Cc1nn(-c2ccccc2)c(Cl)c1/C=N/NC(=O)c1nn(C)cc1[N+](=O)[O-] ... 40.9
Nc1cnnc(N/N=C\c2ccccc2)c1Cl ... 22.9
O=C(Nc1ccccc1NC(=O)c1c(F)c(F)c(F)c(F)c1F)c1c(F)c(F)c(F)c(F)c1F ... 90.2

# next compound below
# input What value of activity has been recorded for this entry: COCCCn1c(C(=O)Nc2ccc3c(c2)OCO3)cc2c(=O)n3cccc(C)c3nc21
# output 70.2

---

Test: inhibitors of PAF-induced NFkB signaling in CF airway cells, dose response, cell-based, uHTS hits, panel, cytotoxicity readout (AID 624344)
Settings: CF bronchial epithelial cells, PAF-induced NFkB reporter inhibition, with PAF, run 1; at 79 µM (top of the series) unless noted
For each record, write down the corresponding inhibition.
One number for each entry, in %.

Give inhibition for all compounds that follow.
1. Cc1c(-c2ccccc2)oc2c(C(=O)N3CCN(c4ccc([N+](=O)[O-])cc4)CC3)cccc2c1=O
2. COc1ccc(-c2cc(=O)oc3cc(OC(=O)C4CCCCC4)c(Cl)cc23)cc1
3. CN(C)CCCN(C(=O)CCOc1ccccc1)c1nc2ccc(F)cc2s1
4. COc1ccc(-n2nnnc2S(=O)(=O)Cc2ccc(C(=O)O)cc2)cc1

# output
[105, 117, 101, 74.7]

# input What value of inhibition has been recorded for this entry: C[C@]12CCC(O)CC1CCC1C2CC[C@]2(C)C(c3cc(C(F)(F)F)n[nH]3)CCC12 (stereo not given in full)
# output 121

---

Assay: inhibitors of PAF-induced NFkB signaling in CF airway cells, dose response, cell-based, uHTS hits, panel, cytotoxicity readout (AID 624344)
Details: CF bronchial epithelial cells, PAF-induced NFkB reporter inhibition, with PAF, run 1; at 79 µM (top of the series) unless noted
For each record, write down the corresponding inhibition.
One number for each entry, in %.

These recorded examples may help you get a feel for the data.
CC1(C)CC(=O)C(C2C3=C(CC(C)(C)CC3=O)Oc3c(Br)cc(Br)cc32)=C(O)C1 (stereo unspecified) ... 104
CCC(=O)Nc1nc(C)c(-c2csc(Nc3cccc(O)c3)n2)s1 ... 95.9
CN(C)C(=O)c1cccc(-c2cnc3sc(NCc4ccc5c(c4)OCO5)nn23)c1 ... 116
CC(=O)Oc1ccc(N(C(C)=O)S(=O)(=O)c2cccs2)c2ccccc12 ... 92.7
CC(=O)c1cccc(NC(=O)COC(=O)c2ccc(S(C)(=O)=O)c([N+](=O)[O-])c2)c1 ... 92.5

Give inhibition for all compounds that follow.
1. OCCNc1nc(Nc2ccc(Cl)c(Cl)c2)nc2ccccc12
2. CC(=C/c1ccccc1)/C=N/n1c(-c2ccncc2)n[nH]c1=S
3. Cc1ccc(N(C)C(=O)c2cc(S(=O)(=O)N3CCCCC3)c[nH]2)cc1
4. CCOC(=O)c1[nH]c2c(c1C)C(=O)CC(c1ccco1)C2 (stereo unspecified)
5. NC(=O)c1sc2nc3c(c(-c4ccco4)c2c1N)CCCC3
6. C=C1C(=O)[C@]23C[C@H]1CCC2[C@]1(C)C(=O)CC[C@@](C)(C(=O)O)C1C[C@@H]3O (stereo partly specified)
7. CCCNC(=O)COC(=O)c1ccccc1C(=O)c1ccc(Cl)c([N+](=O)[O-])c1

# output
1. 110
2. 110
3. 93.5
4. 40.8
5. 114
6. 98.9
7. 96.2

Give inhibition for all compounds that follow.
1. CC1(Cc2ccc(F)cc2)C(=O)Nc2ccc(-c3cccnc3)cc21 (stereo unspecified)
2. O=C(Nc1cccc2[nH]ncc12)c1ccc(F)cc1

# output
[98.2, 102]

---

Target: Tumor necrosis factor receptor superfamily member 10B (Homo sapiens)
Assay: caspase-8 TRAIL sensitization, hit retest, confirmation, cell-based, NB7+caspase-8, with/without TRAIL, luminescence panel (AID 651596)
Conditions: NB7 neuroblastoma + caspase-8, TRAIL sensitization, luminescence viability, with TRAIL, mean of runs, at 10 µM, stronger effect = higher value
Classify on activity using bottom range (below 50%), center range (50% to below 70%), top range (70% or more)

# input Each compound maps to one class by activity. Which class for O=C(Nc1ccncc1)c1ccc(-c2ccccc2)cc1 ?
# output bottom range

# input Same read-out for c1c2c(cc3sc(N4CCOCC4)nc13)OCCO2 ?
# output center range

# input Same read-out for O=C(Cc1ccsc1-c1ccccc1)NO ?
# output top range

# input Same read-out for O=C(Nc1cnc2ccccn2c1=O)c1ccc(Cl)cc1Cl ?
# output center range

# input Same read-out for Cc1ccc2sc(N(CCCN(C)C)C(=O)CCS(=O)(=O)c3ccccc3)nc2c1C ?
# output center range

# input Same read-out for Cc1cc(NC(=O)c2ccc3c(c2)OCO3)no1 ?
# output bottom range

---

For each record, write down the corresponding inhibition.
Test: HIF-2a reporter inhibitor retest, confirmation, luminescence, 786-0 RCC cells (AID 651580)
Conditions: HIF-2a luciferase reporter luminescence, overnight, at 18.8 µM, stronger effect = higher value
The other results are listed elsewhere or left out.
Numbers only, in %.

Cc1nnnn1/C(=C\c1ccccc1)C(=O)OCC(=O)N1CC2(C)CC1CC(C)(C)C2 (stereo not drawn) ... 62
COc1ccc(C(=O)/C=C/c2ccc(-c3ccccc3)cc2)cc1CSCC(=O)O ... -10.7

# input What value of inhibition has been recorded for this entry: CC(C)(C)c1cc(C(=O)N/N=C/c2ccc([N+](=O)[O-])s2)n[nH]1
# output 74.6

---

Molecular target: PEG-3 (UniProt Q6IN02)
Sequence (Q6IN02 whole entry, looked up): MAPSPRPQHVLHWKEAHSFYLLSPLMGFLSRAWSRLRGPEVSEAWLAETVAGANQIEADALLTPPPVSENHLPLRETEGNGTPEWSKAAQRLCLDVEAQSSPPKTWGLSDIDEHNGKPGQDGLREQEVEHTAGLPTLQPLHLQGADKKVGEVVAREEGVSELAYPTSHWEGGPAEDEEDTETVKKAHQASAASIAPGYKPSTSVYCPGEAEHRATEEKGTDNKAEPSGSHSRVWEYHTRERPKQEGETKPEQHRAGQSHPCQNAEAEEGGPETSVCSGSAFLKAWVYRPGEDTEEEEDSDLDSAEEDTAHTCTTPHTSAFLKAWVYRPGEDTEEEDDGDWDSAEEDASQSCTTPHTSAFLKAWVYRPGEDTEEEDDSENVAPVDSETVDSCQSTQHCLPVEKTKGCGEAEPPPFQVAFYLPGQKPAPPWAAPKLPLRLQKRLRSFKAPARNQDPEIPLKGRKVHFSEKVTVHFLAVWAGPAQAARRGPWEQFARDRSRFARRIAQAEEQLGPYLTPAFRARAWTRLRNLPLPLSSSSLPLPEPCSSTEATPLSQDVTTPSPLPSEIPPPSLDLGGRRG
Assay: Peg3 promoter luciferase inhibitors, potency, dose response, cell-based, HeLa, CREF/GAPDH counter-screen panel (AID 624167)
Settings: CREF/GAPDH counter-screens; HeLa PEG-Prom luciferase reporter, overnight, run 2, dose range 1, at 100 µM (top of the series) unless noted
For each record, write down the corresponding inhibition.
Numbers only, in %.

Give inhibition for all compounds that follow.
1. CC(C)(C)C(=O)Nc1cc2nn(-c3ccccc3)nc2cc1Cl
2. CC(C)(C)c1ccc(CN2N=Nc3ccccc3S2(=O)=O)cc1
3. COc1cc(N=Nc2c(O)c3ccccc3[nH]c2=O)c(OC)cc1N=Nc1ccccc1

# output
1: 90.1; 2: 100; 3: -33.1

Give inhibition for all compounds that follow.
1. Cc1ccc(-n2c(N)c(C(=O)Nc3c(C)n(C)n(-c4ccccc4)c3=O)c3nc4ccccc4nc32)cc1
2. COc1ccc(-c2cc(-c3ccc(F)cc3)nc(N3CCN(C)CC3)n2)cc1
3. O=C(CNCCC1=CCCCC1)Nc1ccc(N2CCCCCC2)cc1
4. C/C(=N\N=C(N)N)c1ccc(Cl)cc1Cl
5. CCCCCCCCCC[N+](C)(C)CC/C=C1/c2ccccc2Sc2ccc(Cl)cc21
6. COCc1ccc(CN2CCC(C(=O)Nc3cccc(-c4cccc(Cl)c4)c3)CC2)o1

# output
1. 62.7
2. 101
3. 102
4. 101
5. 101
6. 99

Give inhibition for all compounds that follow.
1. COC(=O)C1=C(C)N(Cc2ccccc2)C(=NCCc2c[nH]c3ccccc23)N[C@H]1c1cccc(C(F)(F)F)c1
2. O=C(Nc1ccc(-c2nc3ccccc3o2)cc1)c1ccc(N2CCOCC2)c([N+](=O)[O-])c1
3. O=C(Nc1nc2cc3c(cc2s1)OCCO3)c1ccco1
4. O=C(NCCc1ccccc1)c1ccc2c(c1)OCCCO2
5. CC(=O)CSc1ccc(-c2nc3cc(C)c(C)cc3[nH]2)cn1
6. COc1cc2c(cc1OC)CN(c1nc(-c3cccnc3)nc3ccccc13)CC2
7. Cc1cc(-n2c(SCC(=O)Nc3ccc(F)c(F)c3)nc3n[nH]c(C)c3c2=N)ccc1Cl
8. COC1=C(Br)C(=O)c2ncccc2C1=O

# output
[99.9, 37.6, 95.5, 102, 101, 99.1, 95.3, 98.6]

Data origin, for the record: PubChem BioAssay
